As shown below, each of these binders has a reported pEC50 value.
TEST TARGET: T1, Fc tagged human SIRPα v1 ECD recombinant protein (human, UniProt P78324 31-370)
T1 construct: range 1-370; also called hFc tagged human SIRPα v1 ECD; not shown: human IgG Fc (hFc) tag
T1 sequence (P78324 31-370 limits assumed): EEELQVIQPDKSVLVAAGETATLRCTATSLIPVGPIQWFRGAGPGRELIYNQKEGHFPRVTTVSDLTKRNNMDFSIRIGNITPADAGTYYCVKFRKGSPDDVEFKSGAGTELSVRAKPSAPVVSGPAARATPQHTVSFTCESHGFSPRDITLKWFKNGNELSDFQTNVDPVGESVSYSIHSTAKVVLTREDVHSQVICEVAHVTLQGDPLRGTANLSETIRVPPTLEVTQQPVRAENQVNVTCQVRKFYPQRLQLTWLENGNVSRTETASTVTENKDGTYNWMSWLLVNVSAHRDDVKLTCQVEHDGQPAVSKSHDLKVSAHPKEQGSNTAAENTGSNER
EXPERIMENTAL PROTOCOL: ELISA, coated Fc tagged human SIRPα v1 ECD
pEC50: −log10 of the molar value.

BINDER: 059 (antibody, V domains shown, Mouse monoclonal hybridoma antibody; also called antibody 059; hybridoma antibody 059) VH: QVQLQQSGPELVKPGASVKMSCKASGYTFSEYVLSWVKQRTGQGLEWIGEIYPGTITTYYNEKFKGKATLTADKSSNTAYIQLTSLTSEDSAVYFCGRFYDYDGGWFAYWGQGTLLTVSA VL: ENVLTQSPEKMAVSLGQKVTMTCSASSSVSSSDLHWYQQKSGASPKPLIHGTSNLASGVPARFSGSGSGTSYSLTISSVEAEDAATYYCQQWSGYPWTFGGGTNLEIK
pEC50: 10.52
--
BINDER: 042 (antibody, V domains shown, Mouse monoclonal hybridoma antibody; also called antibody 042; hybridoma antibody 042) VH: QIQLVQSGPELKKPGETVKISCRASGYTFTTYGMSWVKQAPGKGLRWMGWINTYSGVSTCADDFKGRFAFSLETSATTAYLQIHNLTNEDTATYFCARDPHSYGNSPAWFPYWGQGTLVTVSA VL: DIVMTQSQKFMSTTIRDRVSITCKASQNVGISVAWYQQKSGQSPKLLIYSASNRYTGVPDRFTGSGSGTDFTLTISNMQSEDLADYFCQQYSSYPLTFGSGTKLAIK
pEC50: 10.52
--
BINDER: 015 (antibody, V domains shown, Mouse monoclonal hybridoma antibody; also called antibody 015; hybridoma antibody 015) VH: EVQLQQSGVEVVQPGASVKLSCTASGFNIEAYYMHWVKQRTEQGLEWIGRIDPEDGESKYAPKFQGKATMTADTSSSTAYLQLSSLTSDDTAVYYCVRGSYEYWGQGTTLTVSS VL: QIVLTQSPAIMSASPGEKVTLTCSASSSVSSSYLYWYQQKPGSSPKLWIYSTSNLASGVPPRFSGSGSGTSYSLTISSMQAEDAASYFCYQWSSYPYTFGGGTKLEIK
pEC50: 10.00
--
BINDER: 071 (antibody, V domains shown, Mouse monoclonal hybridoma antibody; also called antibody 071; hybridoma antibody 071) VH: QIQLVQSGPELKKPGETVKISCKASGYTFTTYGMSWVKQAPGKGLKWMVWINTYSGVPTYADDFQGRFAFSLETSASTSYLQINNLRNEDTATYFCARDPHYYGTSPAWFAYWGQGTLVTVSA VL: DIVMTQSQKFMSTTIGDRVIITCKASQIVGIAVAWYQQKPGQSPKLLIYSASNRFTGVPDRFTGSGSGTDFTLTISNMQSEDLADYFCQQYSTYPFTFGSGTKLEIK
pEC50: 10.52
--
BINDER: HEFLB (antibody, V domains shown) VH: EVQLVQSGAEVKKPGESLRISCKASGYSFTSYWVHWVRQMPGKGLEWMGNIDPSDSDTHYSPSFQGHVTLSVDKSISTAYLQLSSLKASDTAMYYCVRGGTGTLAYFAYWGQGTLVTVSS VL: DVVMTQSPLSLPVTLGQPASISCRSSQSLVHSYGNTYLYWFQQRPGQSPRLLIYRVSNRFSGVPDRFSGSGSGTDFTLKISRVEAEDVGVYYCFQGTHVPYTFGGGTKVEIK
pEC50: 9.77
